This collection of values is drawn from patent US9567301B2.

- System: MM1S cells
- Measurement protocol: Cell viability assay (ATPlite), MM1S
- Type: cell-based, human
- Condition info: Homo sapiens, MM1.S, 72 h, cell viability, three days, ATPlite; NA: inactive under assay conditions
Measured endpoint: log10(EC50) (log10 of the value in µM)
Please keep in mind that the values are log10 of EC50 expressed in µM.

# value of log10(EC50), MM1S cells, item O=C(O)c1ccccc1-n1c2ccccc2c2ccccc21 [Compound 141] = 2.17

# value of log10(EC50), MM1S cells, item Cc1ccc(-c2ccccc2)n1-c1ccc(O)c(C(=O)O)c1 [Compound 12] = 1.90

# value of log10(EC50), MM1S cells, item Cc1ccc(C)n1-c1cc(C(=O)O)ccc1C(=O)O [Compound 157] = 4.04

# value of log10(EC50), MM1S cells, item CC(=O)Oc1cc(-n2c(C)ccc2C)ccc1C(=O)O [Compound 66] = 3.55

# value of log10(EC50), MM1S cells, item Cc1ccc(C)n1-c1cc(C(=O)NCCc2c[nH]cn2)ccc1C(=O)O [Compound 72] = 3.44

# value of log10(EC50), MM1S cells, item Cc1ccc(C)n1-c1ccc(C(=O)O)c(Cl)c1 [Compound 6] = 2.32

# value of log10(EC50), MM1S cells, item Cc1ccc(C)n1-c1cc(C(=O)N/N=C/c2ccc(-c3nnn[nH]3)cc2)ccc1C(=O)O [Compound 92] = 2.86

# value of log10(EC50), MM1S cells, item CC(=O)OCOC(=O)c1ccccc1N1CCOCC1 [Compound 152] = 1.86

# value of log10(EC50), MM1S cells, item CCOC(=O)c1ccc(-n2c(C)ccc2-c2ccccc2)cc1 [Compound 13] = 1.84

# value of log10(EC50), MM1S cells, item CCOC(=O)c1ccc(-n2c(CCC(=O)O)ccc2-c2ccc(OC)cc2)cc1O [Compound 24] = 1.92

# value of log10(EC50), MM1S cells, item CCOC(=O)c1ccc(-n2c(CCC(=O)O)ccc2-c2ccccc2)cc1O [Compound 25] = 1.89

# value of log10(EC50), MM1S cells, item Cc1ccc(C)n1-c1cc(C(=O)NCCN2CCN(C)CC2)ccc1C(=O)O [Compound 74] = 4.44

# value of log10(EC50), MM1S cells, item Cc1c(C)c(C)n(-c2ccccc2C(=O)O)c1C [Compound 138] = 2.29

# value of log10(EC50), MM1S cells, item CC(=O)OCOC(=O)c1ccccc1-n1c(C)ccc1C [Compound 64] = 1.72

# value of log10(EC50), MM1S cells, item CC(=O)OCOC(=O)c1ccc(Cl)cc1-n1c(C)ccc1C [Compound 158] = 2.38

# value of log10(EC50), MM1S cells, item CC(=O)OCOC(=O)c1ccc(C(=O)N/N=C/c2c(CO)cnc(C)c2O)cc1-n1c(C)ccc1C [Compound 111] = 1.34
